Assay: Pharmacokinetic profile of a SOMATULINE/DECAPEPTYL composition in beagle dogs (RIA of blood samples)
Assay type: in vivo
Settings: beagle, dog, in vivo, 0.15 ml
Excerpt: Once a particular peptide or peptide salt is found to gel in an in vitro assay, e.g., an assay as described above, an in vivo assay can be used to determine the suitability of that peptide salt for use as a sustained-release carrier peptide of a therapeutic agent or agents in animals or humans. […] The suitability of a particular peptide gel, or a peptide/carrier gel, for therapeutic delivery of the carrier peptide and/or therapeutic agent or agents can thus be determined. […]
assay_endpoint: level at 47.76 h (ng/mL)
Answers are plain numbers, in ng/mL.

Enquiry: Record request: level at 47.76 h value, item CC(C)C[C@H](NC(=O)[C@@H](Cc1c[nH]c2ccccc12)NC(=O)[C@H](Cc1ccc(O)cc1)NC(=O)[C@H](CO)NC(=O)[C@H](Cc1c[nH]c2ccccc12)NC(=O)[C@H](Cc1c[nH]cn1)NC(=O)[C@@H]1CCC(=O)N1)C(=O)N[C@@H](CCCNC(=N)N)C(=O)N1CCC[C@H]1C(=O)NCC(N)=O
Return: 3.97

====

Test: Pharmacokinetic profile of a SOMATULINE/DECAPEPTYL composition in beagle dogs (RIA of blood samples)
Type: in vivo
Conditions: dog, in vivo; TIME 24.06 days; beagle dogs; 0.15 ml Example 1 semisolid mixture injected; read-out: concentration in blood samples (RIA)
assay_endpoint: level at 577.44 h
Reply with the number, then its unit.

Enquiry: Record request: level at 577.44 h value, item CC(C)[C@@H]1NC(=O)[C@H](CCCCN)NC(=O)[C@@H](Cc2c[nH]c3ccccc23)NC(=O)[C@H](Cc2ccc(O)cc2)NC(=O)[C@@H](NC(=O)[C@H](N)Cc2ccc3ccccc3c2)CSSC[C@@H](C(=O)N[C@H](C(N)=O)[C@@H](C)O)NC1=O [SOMATULINE, lanreotide]
Return: 1.11 ng/mL

====

Assay: Pharmacokinetic profile of a SOMATULINE/DECAPEPTYL composition in beagle dogs (RIA of blood samples)
Type: in vivo
Settings: dog, in vivo; TIME 6.04 days; beagle dogs; 0.15 ml Example 1 semisolid mixture injected; read-out: concentration in blood samples (RIA)
assay_endpoint: level at 144.96 h
Reply with the number, then its unit.

Enquiry: Record request: level at 144.96 h value, item CC(C)[C@@H]1NC(=O)[C@H](CCCCN)NC(=O)[C@@H](Cc2c[nH]c3ccccc23)NC(=O)[C@H](Cc2ccc(O)cc2)NC(=O)[C@@H](NC(=O)[C@H](N)Cc2ccc3ccccc3c2)CSSC[C@@H](C(=O)N[C@H](C(N)=O)[C@@H](C)O)NC1=O [SOMATULINE, lanreotide]
Return: 6.63 ng/mL

====

Assay: Pharmacokinetic profile of a SOMATULINE/DECAPEPTYL composition in beagle dogs (RIA of blood samples)
Format: in vivo
Conditions: beagle, dog, in vivo, 0.15 ml
assay_endpoint: level at 483.36 h (ng/mL)
Answers are plain numbers, in ng/mL.

Enquiry: Record request: level at 483.36 h value, item CC(C)C[C@H](NC(=O)[C@@H](Cc1c[nH]c2ccccc12)NC(=O)[C@H](Cc1ccc(O)cc1)NC(=O)[C@H](CO)NC(=O)[C@H](Cc1c[nH]c2ccccc12)NC(=O)[C@H](Cc1c[nH]cn1)NC(=O)[C@@H]1CCC(=O)N1)C(=O)N[C@@H](CCCNC(=N)N)C(=O)N1CCC[C@H]1C(=O)NCC(N)=O [DECAPEPTYL]
Return: 0.19

====

Assay: Pharmacokinetic profile of a SOMATULINE/DECAPEPTYL composition in beagle dogs (RIA of blood samples)
Format: in vivo
Details: beagle, dog, in vivo, 0.15 ml
assay_endpoint: level at 6 h (ng/mL)
Give bare numbers, in ng/mL.

Enquiry: Record request: level at 6 h value, item CC(C)C[C@H](NC(=O)[C@@H](Cc1c[nH]c2ccccc12)NC(=O)[C@H](Cc1ccc(O)cc1)NC(=O)[C@H](CO)NC(=O)[C@H](Cc1c[nH]c2ccccc12)NC(=O)[C@H](Cc1c[nH]cn1)NC(=O)[C@@H]1CCC(=O)N1)C(=O)N[C@@H](CCCNC(=N)N)C(=O)N1CCC[C@H]1C(=O)NCC(N)=O [DECAPEPTYL]
Return: 21.2

====

Assay: Pharmacokinetic profile of a SOMATULINE/DECAPEPTYL composition in beagle dogs (RIA of blood samples)
Format: in vivo
Settings: dog, in vivo; TIME 71.15 days; beagle dogs; 0.15 ml Example 1 semisolid mixture injected; read-out: concentration in blood samples (RIA)
assay_endpoint: level at 1707.6 h

Enquiry: Record request: level at 1707.6 h value, item CC(C)[C@@H]1NC(=O)[C@H](CCCCN)NC(=O)[C@@H](Cc2c[nH]c3ccccc23)NC(=O)[C@H](Cc2ccc(O)cc2)NC(=O)[C@@H](NC(=O)[C@H](N)Cc2ccc3ccccc3c2)CSSC[C@@H](C(=O)N[C@H](C(N)=O)[C@@H](C)O)NC1=O [SOMATULINE, lanreotide]
Return: 0.15 ng/mL

====

Assay: Pharmacokinetic profile of a SOMATULINE/DECAPEPTYL composition in beagle dogs (RIA of blood samples)
Format: in vivo
Conditions: dog, in vivo; TIME 64.02 days; beagle dogs; 0.15 ml Example 1 semisolid mixture injected; read-out: concentration in blood samples (RIA)
assay_endpoint: level at 1536.48 h (ng/mL)
Give bare numbers, in ng/mL.

Enquiry: Record request: level at 1536.48 h value, item CC(C)[C@@H]1NC(=O)[C@H](CCCCN)NC(=O)[C@@H](Cc2c[nH]c3ccccc23)NC(=O)[C@H](Cc2ccc(O)cc2)NC(=O)[C@@H](NC(=O)[C@H](N)Cc2ccc3ccccc3c2)CSSC[C@@H](C(=O)N[C@H](C(N)=O)[C@@H](C)O)NC1=O [SOMATULINE, lanreotide]
Return: 0.21

====

Experiment: Pharmacokinetic profile of a SOMATULINE/DECAPEPTYL composition in beagle dogs (RIA of blood samples)
Assay type: in vivo
Settings: beagle, dog, in vivo, 0.15 ml
assay_endpoint: level at 72.48 h (ng/mL)
Give bare numbers, in ng/mL.

Enquiry: Record request: level at 72.48 h value, item CC(C)C[C@H](NC(=O)[C@@H](Cc1c[nH]c2ccccc12)NC(=O)[C@H](Cc1ccc(O)cc1)NC(=O)[C@H](CO)NC(=O)[C@H](Cc1c[nH]c2ccccc12)NC(=O)[C@H](Cc1c[nH]cn1)NC(=O)[C@@H]1CCC(=O)N1)C(=O)N[C@@H](CCCNC(=N)N)C(=O)N1CCC[C@H]1C(=O)NCC(N)=O [DECAPEPTYL]
Return: 3.16

====

Experiment: Pharmacokinetic profile of a SOMATULINE/DECAPEPTYL composition in beagle dogs (RIA of blood samples)
Format: in vivo
Settings: beagle, dog, in vivo, 0.15 ml
assay_endpoint: level at 0.48 h

Enquiry: Record request: level at 0.48 h value, item CC(C)C[C@H](NC(=O)[C@@H](Cc1c[nH]c2ccccc12)NC(=O)[C@H](Cc1ccc(O)cc1)NC(=O)[C@H](CO)NC(=O)[C@H](Cc1c[nH]c2ccccc12)NC(=O)[C@H](Cc1c[nH]cn1)NC(=O)[C@@H]1CCC(=O)N1)C(=O)N[C@@H](CCCNC(=N)N)C(=O)N1CCC[C@H]1C(=O)NCC(N)=O
Return: 6.04 ng/mL

====

Assay: Pharmacokinetic profile of a SOMATULINE/DECAPEPTYL composition in beagle dogs (RIA of blood samples)
Type: in vivo
Conditions: dog, in vivo; TIME 22.04 days; beagle dogs; 0.15 ml Example 1 semisolid mixture injected; read-out: concentration in blood samples (RIA)
From the text: Once a particular peptide or peptide salt is found to gel in an in vitro assay, e.g., an assay as described above, an in vivo assay can be used to determine the suitability of that peptide salt for use as a sustained-release carrier peptide of a therapeutic agent or agents in animals or humans. […] The suitability of a particular peptide gel, or a peptide/carrier gel, for therapeutic delivery of the carrier peptide and/or therapeutic agent or agents can thus be determined. […]
assay_endpoint: level at 528.96 h (ng/mL)
Answers are plain numbers, in ng/mL.

Enquiry: Record request: level at 528.96 h value, item CC(C)[C@@H]1NC(=O)[C@H](CCCCN)NC(=O)[C@@H](Cc2c[nH]c3ccccc23)NC(=O)[C@H](Cc2ccc(O)cc2)NC(=O)[C@@H](NC(=O)[C@H](N)Cc2ccc3ccccc3c2)CSSC[C@@H](C(=O)N[C@H](C(N)=O)[C@@H](C)O)NC1=O [SOMATULINE, lanreotide]
Return: 1.3

====

Experiment: Pharmacokinetic profile of a SOMATULINE/DECAPEPTYL composition in beagle dogs (RIA of blood samples)
Type: in vivo
Conditions: dog, in vivo; TIME 59.08 days; beagle dogs; 0.15 ml Example 1 semisolid mixture injected; read-out: concentration in blood samples (RIA)
assay_endpoint: level at 1417.92 h (ng/mL)
Numbers only, in ng/mL.

Enquiry: Record request: level at 1417.92 h value, item CC(C)[C@@H]1NC(=O)[C@H](CCCCN)NC(=O)[C@@H](Cc2c[nH]c3ccccc23)NC(=O)[C@H](Cc2ccc(O)cc2)NC(=O)[C@@H](NC(=O)[C@H](N)Cc2ccc3ccccc3c2)CSSC[C@@H](C(=O)N[C@H](C(N)=O)[C@@H](C)O)NC1=O [SOMATULINE, lanreotide]
Return: 0.27
